Measured values drawn from paper PMC5540273 for this set.

system: ERK2; construct: gene MAPK1; conditions: concentration: 1 μM, replicates: in singlicate; n = 1;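 further: KINOMEscan kinase panel screen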
experimental_endpoint: %Inh (%)
// note: answer is a bare numeric in %

[
  {
    "compound": "Cc1nnc(-c2ccc3occ(-c4ccc(C(C)O)cc4)c3c2)o1 (centres unmarked)",
    "%Inh [%]": 0
  },
  {
    "compound": "Cc1nnc(-c2ccc3ncc(-c4ccc(S(C)=O)cc4)n3c2)o1 (centres unmarked)",
    "%Inh [%]": 0
  },
  {
    "compound": "O=c1cc(N2CCOCC2)nc2n(Cc3cccc(Cl)c3Cl)c(C3CC3)nn12",
    "%Inh [%]": 11
  },
  {
    "compound": "Cn1cc(-c2ccc3c(c2)CCN3C(=O)Cc2ccccc2Cl)c2c(N)ncnc21",
    "%Inh [%]": 0
  },
  {
    "compound": "Cc1nnc(-c2ccc(C)c(-c3ccc(C(=O)Nc4ccc(NS(C)(=O)=O)cc4)cc3)c2)o1",
    "%Inh [%]": 0
  }
]

Now look at this one.
Problem: API: value(readout=%Inh, system=ERK2) for record "c1ccc(-c2cc(-c3c[nH]nc3-c3ccccn3)ccn2)cc1"
Result: 0

###

tested on: GSK3B; conditions: concentration: 1 μM, replicates: in singlicate; n = 1
experimental_endpoint: %Inh (%)
// note: answer is a bare numeric in %

Observe how each entry below is paired with its result.
[
  {
    "compound": "Nc1nc(-c2ccc3c(N)n[nH]c3c2)cc(N2CCCC2)n1",
    "study_target": "GSK3B",
    "%Inh (%)": 0
  },
  {
    "compound": "CCn1cnc2c(N)ncnc21",
    "study_target": "GSK3B",
    "%Inh (%)": 9
  },
  {
    "compound": "COc1cc2ncn(-c3cc(OCc4sccc4Cl)c(C(N)=O)s3)c2cc1OC",
    "study_target": "GSK3B",
    "%Inh (%)": 6
  }
]

Problem: What does the record list as %Inh for "CN1c2ccc(CNc3ccc(F)cc3)cc2-c2c(cnn2C)S1(=O)=O" ?
Result: 0

Problem: What does the record list as %Inh for "COCCNC(=O)c1ccc(-c2cc(C(=O)NC3CC3)cc(F)c2C)cc1" ?
Result: 42

###

Quick reference: %Inh of the listed items.
tested on: DMPK2; construct: gene CDC42BPG; settings: concentration: 1 μM, replicates: in singlicate; n = 1
// note: answer is a bare numeric in %

[
  {
    "compound": "COC(=O)Nc1nc2cc(Oc3ccc(NC(=O)Nc4cc(F)ccc4F)cc3)ccc2[nH]1.Cl",
    "study_target": "DMPK2",
    "%Inh [%]": 1
  },
  {
    "compound": "Cn1ccc2ncnc(Oc3ccc(NC(=O)Nc4ccncc4)c(Cl)c3)c21",
    "study_target": "DMPK2",
    "%Inh [%]": 0
  },
  {
    "compound": "Cc1c2ccc(N(C)c3ccnc(Nc4cccc(S(N)(=O)=O)c4)n3)cc2nn1Cc1ccccc1.Cl.Cl",
    "study_target": "DMPK2",
    "%Inh [%]": 0
  },
  {
    "compound": "Cc1cccc(-c2nc(Nc3ccc4ncsc4c3)c3ccccc3n2)n1",
    "study_target": "DMPK2",
    "%Inh [%]": 9
  },
  {
    "compound": "COc1ccc(CNC(=O)NC2CCN(c3ccnc(Nc4ccc(OC)cc4)n3)C2)cc1 (stereo not drawn)",
    "study_target": "DMPK2",
    "%Inh [%]": 0
  },
  {
    "compound": "N#Cc1c(N2CCOCC2)sc(-c2ccn[nH]2)c1-c1ccc(Cl)cc1",
    "study_target": "DMPK2",
    "%Inh [%]": 2
  }
]

Problem: What does the record list as %Inh for "O=c1cc(N2CCOCC2)nc2n(Cc3cccc(Cl)c3Cl)c(C3CC3)nn12" ?
Result: 0
